tested on: Calu-3; experiment: cell viability relative to DMSO; higher = less toxic; details: 72 h; 10000 nM
Item-by-item account of cell viability

molecule | unit name | cell viability
C=CCC1(CC(C)C)C(=O)NC(=O)NC1=O [butalbital] | % | 114
O=C(O)c1cn(-c2ccc(F)cc2)c2cc(N3CCNCC3)c(F)cc2c1=O [sarafloxacin] | % | 101
CN[C@@H]1[C@H](O[C@H]2[C@H](O[C@H]3[C@H](O)[C@@H](O)[C@H](NC(=N)N)[C@@H](O)[C@@H]3NC(=N)N)O[C@@H](C)[C@]2(O)CO)O[C@@H](CO)[C@H](O)[C@H]1O [dihydrostreptomycin] | % | 94.8
O=C(Nc1nc2cccc(-c3ccc(CN4CCS(=O)(=O)CC4)cc3)n2n1)C1CC1 [filgotinib] | % | 97.4
COC(=O)C1=CO[C@@H](O[C@@H]2O[C@H](CO)[C@@H](O)[C@H](O)[C@H]2O)[C@@H]2C(CO)=CC[C@H]12 [geniposide] | % | 98.4
CC(C)(C)NC(=O)[C@@H](c1cccnc1)N(C(=O)c1ccco1)c1ccc(C(C)(C)C)cc1 [ML188] | % | 89.7
CCN(CCNC(=O)Nc1ccccc1Br)c1cccc(C)c1 | % | 101
CCCCCCN(CCCCCC)C(=O)Cc1c(-c2ccc(Cl)cc2)[nH]c2ccc(Cl)cc12 [FGIN-1-43] | % | 103
NC(=O)c1cn(Cc2c(F)cccc2F)nn1 [rufinamide] | % | 100
C#C[C@]1(O)C=C[C@H]2[C@@H]3CCC4=CC(=O)CC[C@@H]4[C@H]3CC[C@@]21CC [gestodene] | % | 108
Clc1cccc(N2CCNCC2)c1 [mCPP] | % | 100
COc1ccc2c(c1)c(C1=C(c3c[nH]c4ccccc34)C(=O)NC1=O)cn2CCCN(C)C [go-6983] | % | 84
CN(C)C(=O)Oc1cc(OC(=O)N(C)C)cc(C(O)CNC(C)(C)C)c1 (stereo not drawn) [bambuterol] | % | 117

###

system: Vero E6; assay: relative viability EC50 (midpoint between 100% and the lowest measured viability); higher = less toxic; details: 72 h

compound | relative viability EC50
CCOC(=O)c1ccc(-c2ccc(OC(=O)N(C)Cc3cccc(-c4ccncc4)c3)cc2)cc1 | > 10 µM
Cc1ccc([N+](=O)[O-])cc1O | > 10 µM
Clc1ccccc1C(c1ccccc1)(c1ccccc1)n1cccn1 | > 10 µM
COc1cc(OC)cc(-c2ccc3c(-c4ccc(F)cc4)n[nH]c3n2)c1 | > 10 µM
CCc1nc2c(C)nc(C)cc2n1-c1ccc(CCNC(=O)NS(=O)(=O)c2ccc(C)cc2)cc1 | > 10 µM
CCc1nc(-c2cccc(C)c2)c(-c2ccnc(NC(=O)c3ccccc3)c2)s1 | > 10 µM
CNC(=O)c1ccccc1Nc1nc(Nc2ccc(N3CCOCC3)cc2OC)ncc1Cl | 0.645 µM
Nc1cccc2c1C(=O)N(C1CCC(=O)NC1=O)C2=O (stereo unspecified) [pomalidomide] | > 10 µM
CC(=N)NCc1cccc(CN)c1 [1400W] | > 10 µM
Cc1cc(Cn2cnc3c2C[C@@H](C(=O)O)N(C(=O)C(c2ccccc2)c2ccccc2)C3)ccc1N(C)C | > 10 µM
Cc1nc(Nc2n[nH]c3c2CN(C(=O)N[C@H](CN(C)C)c2ccccc2)C3(C)C)c2sccc2n1 | 0.552 µM

###

test system: HepG2; assay: cell viability relative to DMSO; higher = less toxic; conditions: 72 h; 10000 nM
# label = Condition met if cell viability < 90% else Condition not met

structure | class
O=C(CCCCCN1C(=O)c2cccc3cccc(c23)C1=O)NO | Condition met
C#C[C@]1(O)C=C[C@H]2[C@@H]3CCC4=CC(=O)CC[C@@H]4[C@H]3CC[C@@]21CC | Condition not met
Clc1ccc(N2CCN(Cc3c[nH]c4ncccc34)CC2)cc1 | Condition met
Cc1csc(S(=O)(=O)N(CC(C)C)c2cc3c(cc2OCc2ccc(C(=O)O)cc2)CCC3)n1 | Condition not met
COc1ccc(Nc2nccc(NCCO)n2)cc1 | Condition not met

###

Item-by-item account of cell viability
test system: HepG2; experiment: cell viability relative to DMSO; higher = less toxic; conditions: 72 h; 100 nM

molecule | cell viability
Clc1ccc(N2CCN(Cc3c[nH]c4ncccc34)CC2)cc1 | 97.1%
Nc1nc(Cl)nc2c1ncn2[C@@H]1O[C@H](CO)[C@@H](O)[C@H]1O | 104%
CC(=O)O[C@H]1C(=O)[C@@]2(C)[C@H]([C@H](OC(=O)c3ccccc3)[C@]3(O)C[C@H](OC(=O)[C@H](O)[C@@H](NC(=O)c4ccccc4)c4ccccc4)C(C)=C1C3(C)C)[C@]1(OC(C)=O)CO[C@@H]1C[C@@H]2O | 42.8%
O=C(OCC(O)CO)c1ccccc1Nc1ccnc2cc(Cl)ccc12 (stereo not given) | 97.4%
N=C(N)NCCC[C@@H](N)C(=O)N[C@@H](CCCNC(=N)N)C(=O)N1CCC[C@H]1C(=O)N1C[C@H](O)C[C@H]1C(=O)NCC(=O)N[C@@H](Cc1cccs1)C(=O)N[C@@H](CO)C(=O)N1Cc2ccccc2C[C@@H]1C(=O)N1[C@H](C(=O)N[C@@H](CCCNC(=N)N)C(=O)O)C[C@@H]2CCCC[C@@H]21 [icatibant-acetate] | 84.7%
CCC1(CC)C(=O)C=CNC1=O | 94.9%
CN(C)C(=O)Oc1cc(OC(=O)N(C)C)cc(C(O)CNC(C)(C)C)c1 (stereo not given) | 99.1%
O=C(Cn1ccnc1[N+](=O)[O-])NCc1ccccc1 | 93.7%
COc1ccc(-c2ccc3c(N4CCOC[C@@H]4C)nc(N4CCOC[C@@H]4C)nc3n2)cc1CO | 54.7%
NS(=O)(=O)c1cc(C(=O)O)cc(N2CCCC2)c1Oc1ccccc1 [piretanide] | 85.1%
CO[C@H]1C[C@H](O[C@H]2CC[C@@]3(C)[C@H](CC[C@@H]4[C@@H]3CC[C@]3(C)[C@@H](C5=CC(=O)OC5)[C@@H](OC(C)=O)C[C@]43O)C2)O[C@@H](C)[C@@H]1O | 38.1%
N[C@@H]1[C@H]2CN(c3nc4c(cc3F)c(=O)c(C(=O)O)cn4-c3ccc(F)cc3F)C[C@@H]12 | 102%
CNCCC=C1c2ccccc2CCc2ccccc21 | 112%
CC(=O)O[C@@]12CO[C@@H]1C[C@H](O)[C@@]1(C)C(=O)[C@H](O)C3=C(C)[C@@H](O)C[C@@](O)([C@@H](OC(=O)c4ccccc4)[C@H]21)C3(C)C | 97.3%
C1CCC2(CC1)CCNCC2 [4,4-pentamethylenepiperidine] | 96%
CN(C)c1nc(N)c(C(=O)Nc2cccnc2)nc1Cl | 103%
CC(=O)O[C@]1(C(C)=O)CC[C@H]2[C@@H]3C=C(Cl)C4=CC(=O)CC[C@]4(C)[C@H]3CC[C@@]21C [chlormadinone-acetate] | 100%
CC(C)/N=c1\cc2n(-c3ccc(Cl)cc3)c3ccccc3nc-2cc1Nc1ccc(Cl)cc1 | 89.8%
CC(=O)Nc1ccc(C(=O)NC(C)(C)C)cc1 | 96.6%
CC[C@H](CC[C@@H](C)[C@H]1CC[C@H]2[C@@H]3CC=C4C[C@@H](O)CC[C@]4(C)[C@H]3CC[C@]12C)C(C)C | 93.3%
COc1c(Nc2ccc(S(C)(=O)=O)nc2C)ncnc1OC1CCN(C(=O)OC(C)C)CC1 | 94.4%
O=C1Nc2ccc(I)cc2C1=Cc1cc(Br)c(O)c(Br)c1 | 97.3%
Cn1cc(C(=O)OCC2CCN(CCNS(C)(=O)=O)CC2)c2ccccc21 | 93.9%
CNC(=O)c1c(I)c(C(=O)NCC(=O)Nc2c(I)c(C(=O)O)c(I)c(C(=O)NCCO)c2I)c(I)c(N(C)C(C)=O)c1I | 94%
Cc1ccc([N+](=O)[O-])cc1O | 99.4%

###

tested on: Caco-2; assay: cell viability relative to DMSO; higher = less toxic; settings: 72 h; 10 nM

compound | unit name | cell viability
CS(=O)(=O)c1ccc(-c2nnc(/C=C/c3nnc(-c4ccc(C#N)cc4)o3)n2-c2ccccc2Cl)nc1 | % | 108
C=CCN1CC[C@]23c4c5ccc(O)c4O[C@H]2/C(=N/NC(=O)c2ccccc2)CC[C@@]3(O)[C@H]1C5 [naloxone-benzoylhydrazone] | % | 93.8
CN1CCC(NC(=O)c2cc(-c3c(O)cc(O)cc3Oc3ccc([N+](=O)[O-])cc3)on2)CC1 | % | 97.8
O=C(CCCCCN1C(=O)c2cccc3cccc(c23)C1=O)NO | % | 90.8

###

test system: Caco-2; assay: cell viability relative to DMSO; higher = less toxic; conditions: 72 h; 100 nM

compound | unit name | cell viability
CC(C)NCC(O)c1cc(O)cc(O)c1 (stereo unspecified) [metaproterenol] | % | 104
O=C(O[C@H]1C[N+]2(CCCOc3ccccc3)CCC1CC2)C(O)(c1cccs1)c1cccs1 [aclidinium] | % | 99.6
Nc1cc(-c2ccncc2)c[nH]c1=O [amrinone] | % | 92.4
O=c1[nH]c(=O)c2ccccc2o1 [carsalam] | % | 92.5
O=C1N[C@@H]2[C@@H](O)[C@@H](O)[C@H](O)[C@@H](CO)N2C1=O [kifunensine] | % | 91.8
c1ccc(C(NCc2cccnc2)(c2ccccc2)c2ccccc2)cc1 [UCL-2077] | % | 96.7
COc1c(Nc2ccc(S(C)(=O)=O)nc2C)ncnc1OC1CCN(C(=O)OC(C)C)CC1 [APD597] | % | 103
C1CCC2(CC1)CCNCC2 [4,4-pentamethylenepiperidine] | % | 97.4
Cc1ccc2c(c1)[C@]13CCCC[C@@H]1[C@H](C2)N(C)CC3 [dimemorfan] | % | 94.6
O=C(OCC(COC(=O)c1cccnc1)(COC(=O)c1cccnc1)COC(=O)c1cccnc1)c1cccnc1 [niceritrol] | % | 92.7
CCCC(=O)O[C@]1(C(=O)COC(C)=O)CC[C@H]2[C@@H]3C[C@H](F)C4=CC(=O)C=C[C@]4(C)[C@@]3(F)[C@@H](O)C[C@@]21C [difluprednate] | % | 98.3
